soluble fraction (log2) values for the sequences below.
Experiment: soluble fraction after stress (log2 fold change); higher = more stays soluble; pooled small domains, quantitative proteomics
Conditions: stress: pH 4
Quick one: just the number, no unit, thanks!

>>> print(df.to_string())
                                      chain  quantitative_readout
0  HMASDEVPGAGFKWREDVLLRVMEANGIDKSNRDDFVRHAVNFDDDDNNYLKKAEIEAAAAAWVESQSPA                -0.239
1  HMKEEDLPREYTDILGNSVHERLNIMIHDIIEHSQDKPEVAMSPEREEAMHGLRRWMFDHVYH                -0.307
2  HMLLSEPSVLKFNDDNSYEIVSGFLTEYKDKIVKIERRYKKATVKITVAGEEKEIKVSFVEDTE                 -1.13

Now for another entry.
Ask: If you can, please state the reported soluble fraction (log2) value of HMRGLGDLEPVDSLGKIRIDDGHMVLAFGRHKGRHLSEVQAEDPRYIHWLLSPKGIEDVEAREKVKVYLEG .
Reply: -0.136

###

Experiment: soluble fraction after stress (log2 fold change); higher = more stays soluble; pooled small domains, quantitative proteomics
Details: stress: pH 4
test_readout: soluble fraction (log2)
Lab note: record just the number, no unit beside it.

Example cases with answers are listed next.
>>> print(df.to_string())
                                      chain             test_readout  quantitative_readout
0  HMNYYDLLGIPKSATKQQIRKAYRTKAKEFHPDVNGPFNSHMHFLLLKQAYETLMDANMRHVYDMALIS  soluble fraction (log2)                 0.215
1  HMKNLKPSTEVILKELVKRYPDQTEFRKQQIVDVGQSFGYKGKDYGPIFDADNRVKIGTYDLAGLIVPLQR  soluble fraction (log2)                0.0835
2  HMSEPRYRQLATILAQEIRSNHSAGDQLPSEQALAKRFEVNRHTVRRAVDELVAAGMVTRHQGWGTQVV  soluble fraction (log2)                 0.243
3  HMTATKDLPFSTFITEVEKGNITSVDIKGNQIEGTFSNGAKFKTYSPNYPNLVERLADKGVAISAGPS  soluble fraction (log2)                 0.141
4  HMKALYNLDYEKPLSGSYYTETTARAAVPTDIRKLGLIITYKTDATTNITEQFVGSSISAWTTSGNWKSLG  soluble fraction (log2)                 0.105
5  HMYGTERILAQLANYGIPNKLAFQIQDFYKEETLQIVEQQPYRLVEDIQGMGFKIADQLAEELGI  soluble fraction (log2)                 -1.35

Ask: Returns the measured soluble fraction (log2) for the input sequence. Input: HMKEPIYQTILSALILELNTNHFRKNDPFYSESELRKKYQVSSTTVVRVLNMLADQGYIYRIQGKGSFVSK
Reply: -0.5

###

Measured soluble fraction (log2) of individual entries
Test: soluble fraction after stress (log2 fold change); higher = more stays soluble; pooled small domains, quantitative proteomics
Conditions: stress: pH 4
API note: the answer field is a bare number with no unit suffix.

Below: 5 sequences and their reported soluble fraction (log2).
                                      chain             test_readout  quantitative_readout
0  HMFSSVSVPAELSNQRFDKVVAELTPDLSRSKIKQLILLGKVLLNGEVTPPKQKVETGDEIEIFYTRQIE  soluble fraction (log2)                 -0.23
1  HMAPAILTVQVKPDKIREIIGPGGKMIRMIQSETNTRVEVDDSGLVKIAAVSKEEGEAALKMVSDITME  soluble fraction (log2)                -0.177
2  HMIGEKLKEIREKTGMNKKEFAQYLGLKYTTYNNYETEAREPASDFLILISTKFDVSIDYLLGLQ  soluble fraction (log2)                -0.389
3  HMGMEENLLKERKQILMDIMKSKEYQPMKVKELAMVLNVPKEDREELRYVLNELMNEGKIVESKKGKFSIA  soluble fraction (log2)                0.0605
4  HMGDEPGAGYKWREDVLLRVMSEHGIDESARDDFVRHAVKFDDDDNLYLKKAEIIAAAEAWESSS  soluble fraction (log2)                 -2.05

Ask: Could you tell me which soluble fraction (log2) is on file for HMSVAPISYSQFESYLEQGKVASVAVGQDTIAGRFTAPVDGKSQFVTTIVNPQILDRIDKSGVEITGV ?
Reply: -0.175

Ask: Given HMGTNTTGWIKIADDWKYIDSNGEYTVNDWRQSADGGWYYLGYNGNMLKNQTTPDGYYVDAEGLWDGMSPA , state its recorded soluble fraction (log2).
Reply: -2.31

Entry source: the domain aggregation screens of Martell et al. (2025)
